- Method Summary: in vitro
- Settings: human, Caco-2, pH 7.4
Exercise: state measured Papp A→B at 2 h, 3 μM for each of the molecules provided.
Give bare numbers, in ×10⁻⁶ cm/s.

Sample answers from the record:
>>> number("[2H]C([2H])([2H])NC(=O)c1nnc(NC(=O)C2CC2)cc1Nc1ccnc(-c2cnn(C3CC3)c2)c1OC [Example 4]")
13.8
>>> number("[2H]C([2H])([2H])NC(=O)c1nnc(NC(=O)C2CC2)cc1Nc1cncc(-c2cnn(C3CC3)n2)c1OC [Example 5]")
34.2
>>> number("[2H]C([2H])([2H])NC(=O)c1nnc(NC(=O)C2CC2)cc1Nc1ccnc(-c2cnn(C3CC3)n2)c1OC [Example 3]")
9.8
>>> number("[2H]C([2H])([2H])NC(=O)c1nnc(NC(=O)C2CC2)cc1Nc1ccnc(-c2cnn(C)n2)c1OC [Example 2]")
12.2

// query Papp A→B at 2 h, 3 μM value for entry [2H]C([2H])([2H])NC(=O)c1nnc(NC(=O)C2CC2)cc1Nc1ncnc(-c2cnn(C)n2)c1OC [Example 1]
26.1
